target: Receptor-type tyrosine-protein kinase FLT3 (Homo sapiens); test: Inhibition of human recombinant FLT3 after 1 hr by LanthaScreen assay platform
Sequence (P36888 whole entry): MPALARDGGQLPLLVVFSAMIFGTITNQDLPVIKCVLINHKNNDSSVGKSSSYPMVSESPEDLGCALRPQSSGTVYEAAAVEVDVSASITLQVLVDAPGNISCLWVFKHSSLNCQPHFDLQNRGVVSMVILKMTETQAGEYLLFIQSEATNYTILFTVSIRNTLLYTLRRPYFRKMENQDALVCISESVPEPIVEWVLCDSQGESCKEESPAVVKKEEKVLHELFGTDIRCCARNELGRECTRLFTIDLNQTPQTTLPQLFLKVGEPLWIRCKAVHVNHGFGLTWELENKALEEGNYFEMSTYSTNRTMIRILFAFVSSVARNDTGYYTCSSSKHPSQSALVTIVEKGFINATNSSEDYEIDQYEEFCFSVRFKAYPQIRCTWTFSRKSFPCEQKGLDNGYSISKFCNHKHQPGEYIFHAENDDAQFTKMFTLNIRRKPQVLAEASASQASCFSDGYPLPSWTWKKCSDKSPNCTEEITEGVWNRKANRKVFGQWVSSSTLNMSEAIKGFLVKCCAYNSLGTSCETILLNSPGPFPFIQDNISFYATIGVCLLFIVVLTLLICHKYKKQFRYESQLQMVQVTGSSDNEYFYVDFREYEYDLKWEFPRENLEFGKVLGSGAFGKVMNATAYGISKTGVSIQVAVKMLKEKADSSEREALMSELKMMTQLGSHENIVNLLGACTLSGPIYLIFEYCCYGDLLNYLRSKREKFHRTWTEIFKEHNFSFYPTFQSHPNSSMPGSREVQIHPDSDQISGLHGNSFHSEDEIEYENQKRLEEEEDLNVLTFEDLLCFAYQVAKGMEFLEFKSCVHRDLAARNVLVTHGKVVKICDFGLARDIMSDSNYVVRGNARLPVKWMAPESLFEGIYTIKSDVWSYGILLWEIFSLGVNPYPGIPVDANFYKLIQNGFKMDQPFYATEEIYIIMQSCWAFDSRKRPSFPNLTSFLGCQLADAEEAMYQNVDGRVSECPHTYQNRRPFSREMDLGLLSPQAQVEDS
pIC50: −log10 of the molar value.
Known pIC50 of a selection of molecules
assay_endpoint: pIC50

1. O=C(CCCCCCN1C/C=C/CCOc2cccc(c2)-c2ccnc(n2)Nc2cccc(c2)C1)NO 7.06
2. O=C(CCCCN1C/C=C/CCOc2cccc(c2)-c2ccnc(n2)Nc2cccc(c2)C1)NO 6.74
3. O=C(CCCCCCC(=O)N1C/C=C/COCc2cccc(c2)-c2ccnc(n2)Nc2cccc(c2)C1)NO 6.08
4. O=C(CCCCCCN1C/C=C/COCc2cccc(c2)-c2ccnc(n2)Nc2cccc(c2)C1)NO 6.66
5. CN1C/C=C/CCOc2cccc(c2)-c2ccnc(n2)Nc2cccc(c2)C1 7.38
6. O=C(CCCCCCCC(=O)N1C/C=C/COCc2cccc(c2)-c2ccnc(n2)Nc2cccc(c2)C1)NO 6.57
7. O=C(CCCCC(=O)N1C/C=C/CCOc2cccc(c2)-c2ccnc(n2)Nc2cccc(c2)C1)NO 6.25
8. O=C(CCCCCN1C/C=C/CCOc2cccc(c2)-c2ccnc(n2)Nc2cccc(c2)C1)NO 6.97
9. O=C(CCCCC(=O)N1C/C=C/COCc2cccc(c2)-c2ccnc(n2)Nc2cccc(c2)C1)NO 6.66
10. O=C(CCCCCN1C/C=C/COCc2cccc(c2)-c2ccnc(n2)Nc2cccc(c2)C1)NO 6.54
11. O=C(CCCCCCC(=O)N1C/C=C/CCOc2cccc(c2)-c2ccnc(n2)Nc2cccc(c2)C1)NO 5.90
12. O=C(CCCCN1C/C=C/COCc2cccc(c2)-c2ccnc(n2)Nc2cccc(c2)C1)NO 6.66
